// data source = patent EP1870419A2

measurementTarget: Aβ1-40 peptide (natural β-amyloid peptide, β-AP1-40) (In the fibril binding assay the peptide stood as aged fibrils (many copies, number not stated). In the nucleation assay [CUT])
measurementNotes: cell-based or functional assay
Square brackets hold non-standard residues; d marks the D form.
measuredParameter: Nucleation assay Δlag, 2.5 µM compound

> print(dat)
                                     binder                      observed
1  {N‑methyl}-G[dA][dF][dF][dV][dL]-NH2 (also: TFA salt) [PPI 968: TFA·N-methyl-(Gaffvl)-NH2]  > 5 fold of control lag time
2  H-[dL][dV][dF][dF][dA]-NMe2 (also: TFA salt) [PPI 993: TFA·H-(lvffa)-dimethylamide]    1 fold of control lag time
3  {N,N‑dimethyl}-G[dA][dF][dF][dV][dL]-NH2 (also: TFA salt) [PPI 803: TFA·N,N-dimethyl-(Gaffvl)-NH2]  < 1 fold of control lag time

Could you now consider this next binder?
Problem: Returns the measured Nucleation assay Δlag, 2.5 µM compound for the input binder. Input: {N,N‑diethyl}-G[dA][dF][dF][dV][dL]-NH2 (also: TFA salt) [PPI 1005: TFA·N,N-diethyl-(Gaffvl)-NH2]
Result: 3 fold of control lag time
